Taken from the supplement of paper PMC8882468.

Test system: HCI-008 (organoid from a HER2-enriched breast cancer xenograft)
Assay Details: CTG-3D luminescence at 96 h relative to day-0 seeding control (ratio to day 0); higher = more growth / less cytotoxicity; PDxO 3D drug screen (set 2), 96 h, CTG-3D normalised to day-0 seeding control.
Test Parameters: 0.00025 µM; days in culture: 354
Measurement Kind: CTG-3D luminescence at 96 h
Give only the figure.

Ask: Using the record for C[C@@H](Nc1cc(F)cc(F)c1)c1cc(C(=O)N(C)C)cc2c(=O)cc(N3CCOCC3)oc12 [AZD-8186] , report its CTG-3D luminescence at 96 h.
Reply: 1.28

Ask: Look up CTG-3D luminescence at 96 h: Nc1cc(C(F)(F)F)c(-c2cc(N3CCOCC3)nc(N3CCOCC3)n2)cn1 [buparlisib]
Reply: 1.19

Ask: Please give the measured CTG-3D luminescence at 96 h for this compound: CS(=O)(=O)CCNCc1ccc(-c2ccc3ncnc(Nc4ccc(OCc5cccc(F)c5)c(Cl)c4)c3c2)o1 [lapatinib]
Reply: 1.04

Ask: I'd like to know its CTG-3D luminescence at 96 h. The compound in question is CC(=O)c1c(C)c2cnc(Nc3ccc(N4CCNCC4)cn3)nc2n(C2CCCC2)c1=O [palbociclib]
Reply: 1.41

Ask: Fill in the blank: the reported CTG-3D luminescence at 96 h of CO[C@H]1C[C@@H]2CC[C@@H](C)[C@@](O)(O2)C(=O)C(=O)N2CCCC[C@H]2C(=O)O[C@H]([C@H](C)C[C@@H]2CC[C@@H](OCCO)[C@H](OC)C2)CC(=O)[C@H](C)/C=C(\C)[C@@H](O)[C@@H](OC)C(=O)[C@H](C)C[C@H](C)/C=C/C=C/C=C/1C [everolimus] is ____.
Reply: 0.714

---

Tested on: MDA-MB-231
Assay Details: CTG-3D luminescence at 96 h relative to day-0 seeding control (ratio to day 0); higher = more growth / less cytotoxicity; PDxO 3D drug screen, 96 h, CTG-3D normalised to day-0 seeding control.
Test Parameters: 10 µM
Measurement Kind: CTG-3D luminescence at 96 h
Kindly provide the number alone.

Ask: State its CTG-3D luminescence at 96 h on MDA-MB-231: `Cc1cc(Nc2ncc(Cl)c(Nc3ccccc3S(=O)(=O)C(C)C)n2)c(OC(C)C)cc1C1CCNCC1`
Reply: 0.0178

Ask: CTG-3D luminescence at 96 h of `O=C(/C=C/c1cccnc1)NCCCCC1CCN(C(=O)c2ccccc2)CC1` on MDA-MB-231?
Reply: 0.236

Ask: Find the measured CTG-3D luminescence at 96 h: item CN(Cc1cnc2nc(N)nc(N)c2n1)c1ccc(C(=O)N[C@@H](CCC(=O)O)C(=O)O)cc1 [methotrexate] , target or system MDA-MB-231.
Reply: 2.29

Ask: Observed CTG-3D luminescence at 96 h on MDA-MB-231 for `CCc1c2c(nc3ccc(O)cc13)-c1cc3c(c(=O)n1C2)COC(=O)[C@]3(O)CC` , please.
Reply: 0.665

Ask: I'm curious: which CTG-3D luminescence at 96 h was measured for `O=C(O)C1(C(=O)O)CCC1.[NH2-].[NH2-].[Pt+2]` tested on MDA-MB-231?
Reply: 4.16

Ask: What CTG-3D luminescence at 96 h appears in the records for this compound with MDA-MB-231? `CCN(c1cc(C#CCN2CCOCC2)cc(C(=O)NCc2c(C)cc(C)[nH]c2=O)c1C)[C@H]1CC[C@H](N(C)CCOC)CC1`
Reply: 4.37

Ask: What value of CTG-3D luminescence at 96 h on MDA-MB-231 does `CC(=O)O[C@H]1C(=O)[C@@]2(C)[C@H]([C@H](OC(=O)c3ccccc3)[C@]3(O)C[C@H](OC(=O)[C@H](O)[C@@H](NC(=O)c4ccccc4)c4ccccc4)C(C)=C1C3(C)C)[C@]1(OC(C)=O)CO[C@@H]1C[C@@H]2O` have?
Reply: 2.42

Ask: What CTG-3D luminescence at 96 h appears in the records for this compound with MDA-MB-231? `NC(=O)Nc1cc(-c2cccc(F)c2)sc1C(=O)N[C@H]1CCCNC1`
Reply: 0.628

---

System: HCI-002 (organoid from a triple-negative breast cancer xenograft)
Assay Details: CTG-3D luminescence at 96 h relative to day-0 seeding control (ratio to day 0); higher = more growth / less cytotoxicity; PDxO 3D drug screen (set 2), 96 h, CTG-3D normalised to day-0 seeding control.
Test Parameters: 100 µM; days in culture: 168
Measurement Kind: CTG-3D luminescence at 96 h
Keep it simple and answer with nothing but the number.

Ask: Reported CTG-3D luminescence at 96 h for Cc1c(CN2CCN(C(=O)[C@H](C)O)CC2)sc2c(N3CCOCC3)nc(-c3cnc(N)nc3)nc12 [apitolisib] : what is it?
Reply: 0.75

Ask: Reported CTG-3D luminescence at 96 h for Nc1cc(C(F)(F)F)c(-c2cc(N3CCOCC3)nc(N3CCOCC3)n2)cn1 [buparlisib] : what is it?
Reply: 0.241

Ask: What value of CTG-3D luminescence at 96 h has been reported for the following compound? O=C(c1cc(Cc2n[nH]c(=O)c3ccccc23)ccc1F)N1CCN(C(=O)C2CC2)CC1 [olaparib]
Reply: 1.7

Ask: Endpoint output: CTG-3D luminescence at 96 h of CC(C)n1nc(-c2ccc3oc(N)nc3c2)c2c(N)ncnc21 [sapanisertib] . Value?
Reply: 0.155

Ask: Field request: CTG-3D luminescence at 96 h | item: COc1cccc2c1C(=O)c1c(O)c3c(c(O)c1C2=O)C[C@@](O)(C(=O)CO)C[C@@H]3O[C@H]1C[C@H](N)[C@@H](O)[C@H](C)O1 [epirubicin]
Reply: -0.00758

Ask: Returns the measured CTG-3D luminescence at 96 h for the input compound. Input: CC(=O)c1c(C)c2cnc(Nc3ccc(N4CCNCC4)cn3)nc2n(C2CCCC2)c1=O [palbociclib]
Reply: 1.63

Ask: Requested field: CTG-3D luminescence at 96 h. Item: CCOc1ccn(-c2ccc(F)cc2)c(=O)c1C(=O)Nc1ccc(Oc2ccnc(N)c2Cl)c(F)c1 [ASLAN002]
Reply: 0.58

---

Tested on: HCI-027 (organoid from a triple-negative breast cancer xenograft)
Assay Details: CTG-3D luminescence at 96 h relative to day-0 seeding control (ratio to day 0); higher = more growth / less cytotoxicity; PDxO 3D drug screen (set 2), 96 h, CTG-3D normalised to day-0 seeding control.
Test Parameters: 0.005 µM; days in culture: 176
Measurement Kind: CTG-3D luminescence at 96 h
Please reply with the value in numeric form only.

Ask: Which value of CTG-3D luminescence at 96 h has been reported for CS(=O)(=O)CCNCc1ccc(-c2ccc3ncnc(Nc4ccc(OCc5cccc(F)c5)c(Cl)c4)c3c2)o1 [lapatinib] in the records?
Reply: 1.33

Ask: Which value of CTG-3D luminescence at 96 h has been reported for CO[C@H]1C[C@@H]2CC[C@@H](C)[C@@](O)(O2)C(=O)C(=O)N2CCCC[C@H]2C(=O)O[C@H]([C@H](C)C[C@@H]2CC[C@@H](O)[C@H](OC)C2)CC(=O)[C@H](C)/C=C(\C)[C@@H](O)[C@@H](OC)C(=O)[C@H](C)C[C@H](C)/C=C/C=C/C=C/1C [rapamycin] in the records?
Reply: 0.934

Ask: Looking for the measured CTG-3D luminescence at 96 h of CC(=O)c1c(C)c2cnc(Nc3ccc(N4CCNCC4)cn3)nc2n(C2CCCC2)c1=O [palbociclib] , can you help?
Reply: 1.73

Ask: Record request: CTG-3D luminescence at 96 h value, item Nc1cc(C(F)(F)F)c(-c2cc(N3CCOCC3)nc(N3CCOCC3)n2)cn1 [buparlisib]
Reply: 0.833

Ask: So what does the record say about CTG-3D luminescence at 96 h for CC(C)n1nc(-c2ccc3oc(N)nc3c2)c2c(N)ncnc21 [sapanisertib] ?
Reply: 1.45

---

Give CTG-3D luminescence at 96 h for every item shown.
Test system: HCI-012 (organoid from a breast cancer xenograft)
Assay Details: CTG-3D luminescence at 96 h relative to day-0 seeding control (ratio to day 0); higher = more growth / less cytotoxicity; PDxO 3D drug screen (set 2), 96 h, CTG-3D normalised to day-0 seeding control.
Test Parameters: 0.005 µM; days in culture: 284
// return just the number, without any unit appended

Ask: Under HCI-012: CTG-3D luminescence at 96 h value of `O=C(c1cc(Cc2n[nH]c(=O)c3ccccc23)ccc1F)N1CCN(C(=O)C2CC2)CC1` ?
Reply: 1.42

Ask: Entry `CCOc1ccn(-c2ccc(F)cc2)c(=O)c1C(=O)Nc1ccc(Oc2ccnc(N)c2Cl)c(F)c1` , system HCI-012: what CTG-3D luminescence at 96 h was measured?
Reply: 1.82

Ask: For HCI-012, provide CTG-3D luminescence at 96 h of `CC(=O)O[C@@]12CO[C@@H]1C[C@H](O)[C@@]1(C)C(=O)[C@H](O)C3=C(C)[C@@H](OC(=O)[C@H](O)[C@@H](NC(=O)OC(C)(C)C)c4ccccc4)C[C@@](O)([C@@H](OC(=O)c4ccccc4)[C@H]21)C3(C)C` please.
Reply: 1.16

Ask: Lab note: need CTG-3D luminescence at 96 h with HCI-012 for entry COc1cccc2c1C(=O)c1c(O)c3c(c(O)c1C2=O)C[C@@](O)(C(=O)CO)C[C@@H]3O[C@H]1C[C@H](N)[C@@H](O)[C@H](C)O1 [epirubicin] , please look it up.
Reply: 1.39
